Value source: ChEMBL document CHEMBL1138287

# Target under test: Substance-P receptor (Homo sapiens)
# Sequence (P25103 whole entry): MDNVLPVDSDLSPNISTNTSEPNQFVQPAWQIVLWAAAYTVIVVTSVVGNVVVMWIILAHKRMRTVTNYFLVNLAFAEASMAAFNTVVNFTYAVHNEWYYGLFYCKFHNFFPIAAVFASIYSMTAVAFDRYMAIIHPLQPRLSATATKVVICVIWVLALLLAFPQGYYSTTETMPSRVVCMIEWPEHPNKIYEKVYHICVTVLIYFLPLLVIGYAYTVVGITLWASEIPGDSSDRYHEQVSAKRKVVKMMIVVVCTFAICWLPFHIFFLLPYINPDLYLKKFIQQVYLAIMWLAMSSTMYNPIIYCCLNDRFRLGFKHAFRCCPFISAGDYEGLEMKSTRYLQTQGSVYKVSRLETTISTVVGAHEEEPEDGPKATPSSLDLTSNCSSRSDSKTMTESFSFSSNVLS
# Protocol: Displacement of [3H]substance P from NK1 human receptor expressed in IM9 cells
pIC50: −log10 of the molar value.
Measurement name: pIC50

A. COc1ccc(OC(F)(F)F)cc1CN[C@H]1[C@@H]2COC[C@@H]2N[C@H]1c1ccccc1 (racemic)
B. COc1ccccc1CN[C@H]1[C@@H]2CCC[C@@H]2N[C@H]1c1ccccc1 (racemic)
Parameter check: reported pIC50 is higher for which label, A or B ? Write down the label of the entry you select.
A
(A: 9.66, B: 8.47)
